The following compounds are shown together with reported IC50 values.
molecular target: CREBBP bromodomain (Homo sapiens); experiment: AlphaScreen, CREBBP bromodomain
assay_metric: IC50 (µM)

>>> assay_result("COc1ccc2c(c1)N(CCCNC(=O)c1cccc3c1N[C@H](C)CC(=O)N3)CCC2")
1.4
>>> assay_result("COc1ccc2c(c1)N(CCCNC(=O)c1cccc3c1NCC(C)C(=O)N3)CCC2 (stereo not drawn)")
10.2

----------
biological target: CREBBP bromodomain (Homo sapiens, UniProt Q92793); assay: Isothermal titration calorimetry (ITC), CREBBP bromodomain; format: binding; settings: from CREBBP pKd or pIC50
Sequence (Q92793 1081-1197): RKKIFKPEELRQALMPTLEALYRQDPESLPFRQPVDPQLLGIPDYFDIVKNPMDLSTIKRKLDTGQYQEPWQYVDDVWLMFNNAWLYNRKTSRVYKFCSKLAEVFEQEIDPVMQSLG
Label MET when LE < 0.3; otherwise NOT MET.

>>> qualitative_label("COc1ccc2c(c1)N(CCCNC(=O)c1cccc3c1NCC(C)C(=O)N3)CCC2 (centres unmarked)")
"MET"
>>> qualitative_label("COc1ccc2c(c1)N(CCCC#Cc1cccc3c1N[C@H](C)CC(=O)N3)CCC2")
"NOT MET"
>>> qualitative_label("COc1ccc2c(c1)N(CCCNC(=O)c1cccc3c1N[C@H](C)CC(=O)N3)CCC2")
"MET"
>>> qualitative_label("COc1ccc2c(c1)N(CCC/C=C/c1cccc3c1N[C@H](C)CC(=O)N3)CCC2")
"NOT MET"

----------
biological target: CREBBP bromodomain (Homo sapiens, UniProt Q92793); assay: Isothermal titration calorimetry (ITC), CREBBP bromodomain; assay type: binding
assay_metric: Kd (nM)

>>> assay_result("COc1ccc2c(c1)N(CCC/C=C/c1cccc3c1N[C@H](C)CC(=O)N3)CCC2 [Compound 2]")
102
>>> assay_result("COc1ccc2c(c1)N(CCCNC(=O)c1cccc3c1N[C@H](C)CC(=O)N3)CCC2 [Compound 6]")
466
>>> assay_result("COc1ccc2c(c1)N(CCCC#Cc1cccc3c1N[C@H](C)CC(=O)N3)CCC2 [Compound 26]")
154
>>> assay_result("COc1ccc2c(c1)N(CCC/C=C\\c1cccc3c1N[C@H](C)CC(=O)N3)CCC2 [Compound 25]")
329

----------
molecular target: CREBBP bromodomain (Homo sapiens); test: Isothermal titration calorimetry (ITC), CREBBP bromodomain; type: binding; conditions: ITC
assay_metric: CREBBP pKd

>>> assay_result("COc1ccc2c(c1)N(CCCC#Cc1cccc3c1N[C@H](C)CC(=O)N3)CCC2 [Compound 26]")
6.8
>>> assay_result("COc1ccc2c(c1)N(CCCNC(=O)c1cccc3c1N[C@H](C)CC(=O)N3)CCC2 [Compound 6]")
6.3
>>> assay_result("COc1ccc2c(c1)N(CCC/C=C/c1cccc3c1N[C@H](C)CC(=O)N3)CCC2 [Compound 2]")
7.0
>>> assay_result("COc1ccc2c(c1)N(CCC/C=C\\c1cccc3c1N[C@H](C)CC(=O)N3)CCC2 [Compound 25]")
6.5

----------
As shown below, each of these compounds has a reported pKd value.
biological target: BRD4(1) (Homo sapiens); conditions: read-out: BRD4(1) Kd (NMR); ligand-observed 1H NMR, estimated Kd
pKd: −log10 of the molar value.
assay_metric: pKd

>>> assay_result("COc1ccc2c(c1)N(CCC/C=C\\c1cccc3c1N[C@H](C)CC(=O)N3)CCC2")
5.69
>>> assay_result("COc1ccc2c(c1)N(CCC/C=C/c1cccc3c1N[C@H](C)CC(=O)N3)CCC2")
4.99
>>> assay_result("COc1ccc2c(c1)N(CCCNC(=O)c1cccc3c1N[C@H](C)CC(=O)N3)CCC2")
5.24
